# Target Desc: Recombinant human renin (Homo sapiens)
# Test Protocol: Inhibitory activity against human renin (fluorogenic peptide substrate)
# Type: biochemical
# Measurement Context: 50% inhibitory concentration (IC50) against human renin, 37° C. for 1 hour
pIC50: −log10 of the molar value.
Metric: pIC50

Worked examples follow.
Molecule | Target Desc | Recorded Value
CCc1cn(CCCOC)c2cc([C@@H](C)N(C(=O)[C@H]3CNCCO3)C3CC3)nc(Cl)c12 | Recombinant human renin (Homo sapiens) | 8.82
COC[C@@H]1CNC[C@H](C(=O)N(C2CC2)[C@H](C)c2cc(CCCNC(=O)OC)n(-c3ccccc3)n2)O1 | Recombinant human renin (Homo sapiens) | 9.22
COC(=O)NCC(F)Cn1nc([C@@H](C)N(C(=O)[C@H]2CNCCO2)C2CC2)cc1-c1ccccc1 (stereo partly shown) [Example 193] | Recombinant human renin (Homo sapiens) | 9.40
COC(=O)NCCCn1nc([C@@H](C)N(C(=O)[C@H]2CNCCO2)C2CC2)cc1C(C)(C)C | Recombinant human renin (Homo sapiens) | 9.15

[1] COC(=O)NCCCc1cc([C@@H](C)N(C(=O)[C@H]2CNCCO2)C2CC2)sc1-c1ccccc1CNS(=O)(=O)CC(F)(F)F
[2] COC(=O)NCCCn1nc([C@@H](C)N(C(=O)[C@H]2CNCCO2)C2CC2)cc1-c1ccc(F)cn1
[3] COC(=O)NCCOc1cc([C@@H](C)N(C(=O)[C@H]2CNCCO2)C2CC2)nn1-c1ccccc1
Ask: Sort ascending by pIC50. As an answer, provide the labels arranged in the order called for.
Result: 3, 2, 1

* * *

# Target Desc: Recombinant human renin (Homo sapiens, UniProt P00797)
# Sequence (P00797 67-406): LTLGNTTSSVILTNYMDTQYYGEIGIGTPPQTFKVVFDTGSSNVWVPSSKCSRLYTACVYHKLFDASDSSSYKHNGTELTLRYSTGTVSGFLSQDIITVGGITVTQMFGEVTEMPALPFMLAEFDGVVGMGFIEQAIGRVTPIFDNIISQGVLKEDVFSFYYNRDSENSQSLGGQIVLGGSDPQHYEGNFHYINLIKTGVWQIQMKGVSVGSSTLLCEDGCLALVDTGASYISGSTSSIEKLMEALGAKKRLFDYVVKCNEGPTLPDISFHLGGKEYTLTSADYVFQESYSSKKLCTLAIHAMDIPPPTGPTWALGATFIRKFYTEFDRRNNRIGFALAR
# Test Protocol: Inhibitory activity against human renin (fluorogenic peptide substrate)
# Format: biochemical
# Measurement Context: 50% inhibitory concentration (IC50) against human renin, 37° C. for 1 hour
pIC50: −log10 of the molar value.
Metric: pIC50

Use these answered entries as a reference point.
Compound | pIC50
COC(=O)NCCCn1nc([C@@H](C)N(C(=O)[C@H]2CNCCO2)C2CC2)c2c1CCC2 [Example 190] | 8.92
COC(=O)NCCCn1cc([C@@H](C)N(C(=O)[C@H]2CNCCO2)C2CC2)nc1C(F)(F)F [Example 319] | 8.46
COC[C@@H]1CNC[C@H](C(=O)N(C2CC2)[C@H](C)c2cc(CCCNC(=O)OC)n(C3CCOCC3)n2)O1 [Example 303] | 9.10

[1] COC(=O)NCCCc1cc([C@@H](C)N(C(=O)[C@H]2CNCCO2)C2CC2)nc2ccc(C)cc12 [Example 144]
[2] COC(=O)NCCCn1nc([C@@H](C)N(C(=O)[C@H]2CNCCO2)C2CC2)c(F)c1-c1ccccn1 [Example 216]
Ask: Compare 1 and 2 and name the one whose reported pIC50 is smaller. Could you answer with the label of the item you picked?
Result: 1

[1] COC(=O)NCCCc1nc([C@@H](C)N(C(=O)[C@H]2CNCCO2)C2CC2)cn1-c1ccccc1 [Example 182]
[2] COC(=O)NCCCn1nc([C@@H](C)N(C(=O)[C@H]2CNC[C@@H](C(C)(C)O)O2)C2CC2)c2ccc(C)nc21 [Example 293]
Ask: Pick one: 1 or 2 . Which has the bigger pIC50 number? API: response body contains the label of the selected item.
Result: 1
